test system: Proteus Morgani 179; assay: MIC in vitro; format: cell-based
Provide the reported MIC of each item.

Exercise: Would you kindly share the measured MIC for O=C(O)C1=C(CSc2[nH]nnc2C(=O)O)CS[C@@H]2C(NC(=O)[C@H](O)c3ccccc3)C(=O)N12 (stereo partly drawn) [VI] ?
Key: > 200 µg/mL

Exercise: Same question for N[C@@H](C(=O)NC1C(=O)N2C(C(=O)O)=C(CSc3[nH]nnc3C(=O)O)CS[C@H]12)c1ccccc1 (stereo partly drawn) [V] please.
Key: > 200 µg/mL

Exercise: Same question for CCOC(=O)Cc1nc(SCC2=C(C(=O)O)N3C(=O)C(NC(=O)[C@H](N)c4ccccc4)[C@H]3SC2)n[nH]1 (stereo partly drawn) [III] please.
Key: > 200 µg/mL

Exercise: Same question for N[C@@H](C(=O)NC1C(=O)N2C(C(=O)O)=C(CSc3n[nH]c(CC(=O)O)n3)CS[C@H]12)c1ccccc1 (stereo partly drawn) [VIII] please.
Key: 200 µg/mL

Exercise: Same question for NC(=O)c1nn[nH]c1SCC1=C(C(=O)O)N2C(=O)C(NC(=O)[C@H](N)c3ccc(O)cc3)[C@H]2SC1 (stereo partly drawn) [IV] please.
Key: > 200 µg/mL

Exercise: Same question for N[C@@H](C(=O)NC1C(=O)N2C(C(=O)O)=C(CSc3n[nH]c(CC(=O)O)n3)CS[C@H]12)c1ccc(O)cc1 (stereo partly drawn) [VII] please.
Key: > 200 µg/mL

Exercise: Same question for CCOC(=O)c1nn[nH]c1SCC1=C(C(=O)O)N2C(=O)C(NC(=O)[C@H](N)c3ccc(O)cc3)[C@H]2SC1 (stereo partly drawn) [I] please.
Key: > 200 µg/mL

Exercise: Same question for O=C(O)Cc1nc(SCC2=C(C(=O)O)N3C(=O)C(NC(=O)[C@H](O)c4ccccc4)[C@H]3SC2)n[nH]1 (stereo partly drawn) [IX] please.
Key: 200 µg/mL

Exercise: Same question for CCOC(=O)c1nn[nH]c1SCC1=C(C(=O)O)N2C(=O)C(NC(=O)[C@H](N)c3ccccc3)[C@H]2SC1 (stereo partly drawn) [II] please.
Key: > 200 µg/mL

----------
Provide the reported ED50 of each item.
test system: Kleb. pneumo. 4200; assay: In vivo mouse protection (ED50); conditions: Mus musculus, sc, Kleb. pneumo. 4200, s.c.

Exercise: Would you kindly share the measured ED50 for N[C@@H](C(=O)NC1C(=O)N2C(C(=O)O)=C(CSc3n[nH]c(CC(=O)O)n3)CS[C@H]12)c1ccccc1 (stereo partly shown) ?
Key: 0.8 mg/kg

Exercise: Same question for O=C(O)Cc1nc(SCC2=C(C(=O)O)N3C(=O)C(NC(=O)[C@H](O)c4ccccc4)[C@H]3SC2)n[nH]1 (stereo partly shown) please.
Key: 1.5 mg/kg

Exercise: Same question for N[C@@H](C(=O)NC1C(=O)N2C(C(=O)O)=C(CSc3[nH]nnc3C(=O)O)CS[C@H]12)c1ccccc1 (stereo partly shown) please.
Key: > 50 mg/kg

Exercise: Same question for CCOC(=O)Cc1nc(SCC2=C(C(=O)O)N3C(=O)C(NC(=O)[C@H](N)c4ccccc4)[C@H]3SC2)n[nH]1 (stereo partly shown) please.
Key: < 3 mg/kg

Exercise: Same question for O=C(O)C1=C(CSc2[nH]nnc2C(=O)O)CS[C@@H]2C(NC(=O)[C@H](O)c3ccccc3)C(=O)N12 (stereo partly shown) please.
Key: 86 mg/kg

Exercise: Same question for N[C@@H](C(=O)NC1C(=O)N2C(C(=O)O)=C(CSc3n[nH]c(CC(=O)O)n3)CS[C@H]12)c1ccc(O)cc1 (stereo partly shown) please.
Key: 1.1 mg/kg

Exercise: Same question for NC(=O)c1nn[nH]c1SCC1=C(C(=O)O)N2C(=O)C(NC(=O)[C@H](N)c3ccc(O)cc3)[C@H]2SC1 (stereo partly shown) please.
Key: < 3 mg/kg

----------
test system: S. aureus SK 23390; assay: MIC in vitro; type: cell-based; conditions: Staphylococcus aureus, SK23390, S. aureus SK 23390; read-out: MIC in vitro
In plain terms, low MIC, meaning strictly below 6 µg/mL, gives Met, and everything else gives Not met.

Exercise: Find out if reported MIC for N[C@@H](C(=O)NC1C(=O)N2C(C(=O)O)=C(CSc3n[nH]c(CC(=O)O)n3)CS[C@H]12)c1ccccc1 (stereo partly shown) [VIII] is less than 6 µg/mL
Key: Not met

Exercise: Same question for NC(=O)c1nn[nH]c1SCC1=C(C(=O)O)N2C(=O)C(NC(=O)[C@H](N)c3ccc(O)cc3)[C@H]2SC1 (stereo partly shown) [IV] please.
Key: Met

Exercise: Same question for CCOC(=O)c1nn[nH]c1SCC1=C(C(=O)O)N2C(=O)C(NC(=O)[C@H](N)c3ccc(O)cc3)[C@H]2SC1 (stereo partly shown) [I] please.
Key: Not met

Exercise: Same question for N[C@@H](C(=O)NC1C(=O)N2C(C(=O)O)=C(CSc3[nH]nnc3C(=O)O)CS[C@H]12)c1ccccc1 (stereo partly shown) [V] please.
Key: Not met

Exercise: Same question for O=C(O)Cc1nc(SCC2=C(C(=O)O)N3C(=O)C(NC(=O)[C@H](O)c4ccccc4)[C@H]3SC2)n[nH]1 (stereo partly shown) [IX] please.
Key: Met

----------
test system: Kleb. pneumo. SK 1200; assay: MIC in vitro; type: cell-based; conditions: Kleb. pneumo. SK 1200; read-out: MIC in vitro
MEASUREMENT TYPE: MIC (µg/mL)
Only the number, expressed in µg/mL, is required.

Exercise: Would you kindly share the measured MIC for O=C(O)C1=C(CSc2[nH]nnc2C(=O)O)CS[C@@H]2C(NC(=O)[C@H](O)c3ccccc3)C(=O)N12 (stereo partly drawn) ?
Key: 3.1

Exercise: Same question for CCOC(=O)Cc1nc(SCC2=C(C(=O)O)N3C(=O)C(NC(=O)[C@H](N)c4ccccc4)[C@H]3SC2)n[nH]1 (stereo partly drawn) please.
Key: 25

Exercise: Same question for N[C@@H](C(=O)NC1C(=O)N2C(C(=O)O)=C(CSc3[nH]nnc3C(=O)O)CS[C@H]12)c1ccccc1 (stereo partly drawn) please.
Key: 3.1

Exercise: Same question for N[C@@H](C(=O)NC1C(=O)N2C(C(=O)O)=C(CSc3n[nH]c(CC(=O)O)n3)CS[C@H]12)c1ccccc1 (stereo partly drawn) please.
Key: 1.6

Exercise: Same question for NC(=O)c1nn[nH]c1SCC1=C(C(=O)O)N2C(=O)C(NC(=O)[C@H](N)c3ccc(O)cc3)[C@H]2SC1 (stereo partly drawn) please.
Key: 1.6

Exercise: Same question for CCOC(=O)c1nn[nH]c1SCC1=C(C(=O)O)N2C(=O)C(NC(=O)[C@H](N)c3ccccc3)[C@H]2SC1 (stereo partly drawn) please.
Key: 50

----------
tested on: E. coli 12140; test: In vivo mouse protection (ED50); settings: Escherichia coli, 12140, sc, E. coli 12140, s.c.
MEASUREMENT TYPE: ED50 (mg/kg)
Only the number, expressed in mg/kg, is required.

Exercise: Would you kindly share the measured ED50 for NC(=O)c1nn[nH]c1SCC1=C(C(=O)O)N2C(=O)C(NC(=O)[C@H](N)c3ccc(O)cc3)[C@H]2SC1 (stereo partly shown) ?
Key: 5.2

Exercise: Same question for CCOC(=O)c1nn[nH]c1SCC1=C(C(=O)O)N2C(=O)C(NC(=O)[C@H](N)c3ccc(O)cc3)[C@H]2SC1 (stereo partly shown) please.
Key: 100

Exercise: Same question for N[C@@H](C(=O)NC1C(=O)N2C(C(=O)O)=C(CSc3[nH]nnc3C(=O)O)CS[C@H]12)c1ccccc1 (stereo partly shown) please.
Key: 25

Exercise: Same question for N[C@@H](C(=O)NC1C(=O)N2C(C(=O)O)=C(CSc3n[nH]c(CC(=O)O)n3)CS[C@H]12)c1ccccc1 (stereo partly shown) please.
Key: 1.1

Exercise: Same question for O=C(O)Cc1nc(SCC2=C(C(=O)O)N3C(=O)C(NC(=O)[C@H](O)c4ccccc4)[C@H]3SC2)n[nH]1 (stereo partly shown) please.
Key: 1

Exercise: Same question for O=C(O)C1=C(CSc2[nH]nnc2C(=O)O)CS[C@@H]2C(NC(=O)[C@H](O)c3ccccc3)C(=O)N12 (stereo partly shown) please.
Key: 25

Exercise: Same question for N[C@@H](C(=O)NC1C(=O)N2C(C(=O)O)=C(CSc3n[nH]c(CC(=O)O)n3)CS[C@H]12)c1ccc(O)cc1 (stereo partly shown) please.
Key: 3

----------
System: Salmonella ATCC 12176
Assay: MIC in vitro
Format: cell-based
Conditions: ATCC12176
Procedure: The compounds of Formula I have antibacterial activity against both Gram-positive and Gram-negative organisms. Minimum inhibitory concentrations (MIC's) ranged from 0.2 to >200 μg./ml. in in vitro testing. […] Compound numbers corresponding to structures are given in the experimental section.
MEASUREMENT TYPE: MIC (µg/mL)
Only the number, expressed in µg/mL, is required.

Exercise: Would you kindly share the measured MIC for N[C@@H](C(=O)NC1C(=O)N2C(C(=O)O)=C(CSc3n[nH]c(CC(=O)O)n3)CS[C@H]12)c1ccccc1 (stereo partly drawn) ?
Key: 0.8

Exercise: Same question for O=C(O)C1=C(CSc2[nH]nnc2C(=O)O)CS[C@@H]2C(NC(=O)[C@H](O)c3ccccc3)C(=O)N12 (stereo partly drawn) please.
Key: 12.5

Exercise: Same question for O=C(O)Cc1nc(SCC2=C(C(=O)O)N3C(=O)C(NC(=O)[C@H](O)c4ccccc4)[C@H]3SC2)n[nH]1 (stereo partly drawn) please.
Key: 1.6
